Origin of values: ChEMBL document CHEMBL5579805

Provide the recorded MIC for the entries that follow.
# System: Candida albicans
# assay-remarks: […] activity against Candida albicans by two-fold dilution method
# Type: functional
# assay-setup: Candida albicans
Please give the number followed by its unit.

*Q* Would you mind telling me what MIC value was observed for O=C1CCC[C@@H]2[C@H]3CCCN4CCC[C@@H](CN12)[C@@H]34 ?
*A* 8 µg/mL

*Q* Would you mind telling me what MIC value was observed for COC(=O)CCC[C@@H]1[C@H]2CCCN3CCC[C@@H](CN1C(=O)c1cc4ccc(Cl)cc4n1Cc1ccccc1C(C)(C)C)[C@@H]23 ?
*A* 7.9 µg/mL

*Q* Would you mind telling me what MIC value was observed for COC(=O)CCC[C@@H]1[C@H]2CCCN3CCC[C@@H](CN1C(=O)c1cc4ccc(Cl)cc4n1Cc1ccc(C)cc1)[C@@H]23 ?
*A* 8.08 µg/mL
